- System: TNF-α production by LPS-stimulated RAW 264.7 macrophages
- test-name: Inhibition of TNF-α production by LPS-stimulated macrophages (ELISA)
- Format: cell-based, murine
- condition-set: Mus musculus, RAW264.7; LPS (1 µg/mL)-stimulated RAW 264.7, 24 h; mean ± SD, n = 3; read-out: IC50 TNF-α
pIC50: −log10 of the molar value.
pIC50 for assorted compounds
readout-type: pIC50

compound | study-system | readout-type | assay-result
O=C(/C=C/c1ccc(F)cc1)c1ccc(Br)cc1 [Chalcone 9] | TNF-α production by LPS-stimulated RAW 264.7 macrophages | pIC50 | < 3.48
Cc1ccc(C(=O)/C=C/c2ccc(Cl)cc2)cc1 [Chalcone 18] | TNF-α production by LPS-stimulated RAW 264.7 macrophages | pIC50 | < 3.41
O=C(/C=C/c1ccc(Cl)cc1)c1ccccc1Cl [Chalcone 33] | TNF-α production by LPS-stimulated RAW 264.7 macrophages | pIC50 | 3.78
O=C(/C=C/c1ccccc1)c1ccc(Br)cc1 [Chalcone 8] | TNF-α production by LPS-stimulated RAW 264.7 macrophages | pIC50 | 4.17
CN(C)c1ccc(/C=C/C(=O)c2ccc(Br)cc2)cc1 [Chalcone 11] | TNF-α production by LPS-stimulated RAW 264.7 macrophages | pIC50 | < 3.52
O=C(/C=C/c1ccc([N+](=O)[O-])cc1)c1ccccc1 [Chalcone 37] | TNF-α production by LPS-stimulated RAW 264.7 macrophages | pIC50 | < 3.40
O=C(/C=C/c1ccc([N+](=O)[O-])cc1)c1ccc(Br)cc1 [Chalcone 38] | TNF-α production by LPS-stimulated RAW 264.7 macrophages | pIC50 | < 3.52
O=C(/C=C/c1ccc2c(c1)OCO2)c1ccccc1Cl [Chalcone 35] | TNF-α production by LPS-stimulated RAW 264.7 macrophages | pIC50 | < 3.46
COc1ccc(C(=O)/C=C/c2ccccc2Cl)cc1 [Chalcone 30] | TNF-α production by LPS-stimulated RAW 264.7 macrophages | pIC50 | < 3.44
COc1ccc(/C=C/C(=O)c2ccc(OC)cc2)cc1 [Chalcone 29] | TNF-α production by LPS-stimulated RAW 264.7 macrophages | pIC50 | < 3.43

---

IC50 for assorted molecules
- Test system: TNF-α production by LPS-stimulated RAW 264.7 macrophages
- test-name: Inhibition of TNF-α production by LPS-stimulated macrophages (ELISA)
- Type: cell-based, murine
- condition-set: Mus musculus, RAW264.7; LPS (1 µg/mL)-stimulated RAW 264.7, 24 h; mean ± SD, n = 3; read-out: IC50 TNF-α
readout-type: IC50

smiles-record | assay-result
COc1ccc(/C=C/C(=O)c2ccc(C)cc2)cc1 | > 396 µM
COc1ccc(/C=C/C(=O)c2ccc(Br)cc2)cc1 | > 315 µM
O=C(/C=C/c1ccc(F)cc1)c1ccccc1Cl | > 384 µM
COc1ccc(C(=O)/C=C/c2ccc([N+](=O)[O-])cc2)cc1 | > 353 µM
O=C(/C=C/c1ccc(Cl)cc1)c1ccc(Br)cc1 | > 311 µM
Cc1ccc(C(=O)/C=C/c2ccccc2)cc1 | > 450 µM
O=C(/C=C/c1ccccn1)c1ccccc1 | > 478 µM

---

IC50 for assorted molecules
- System: RAW 264.7 macrophages infected with M. tuberculosis H37Rv
- test-name: Toxicity for infected macrophages, LDH assay
- Type: cell-based, murine
- condition-set: Mus musculus, RAW264.7, 96 h; infected RAW 264.7, 4 days treatment; Figure 3D

molecule | IC50
CN(C)c1ccc(/C=C/C(=O)c2ccccc2)cc1 [Chalcone 4] | 374 µM
O=C(/C=C/c1ccccc1Cl)c1ccc(Br)cc1 [Chalcone 15] | 214 µM
O=C(/C=C/c1ccc2c(c1)OCO2)c1ccccc1 [Chalcone 5] | > 396 µM
O=C(/C=C/c1ccc(Cl)cc1)c1ccccc1Cl [Chalcone 33] | 272 µM
O=C(/C=C/c1ccc(F)cc1)c1ccc(Br)cc1 [Chalcone 9] | > 321 µM
COc1ccc(C(=O)/C=C/c2ccccc2)cc1 [Chalcone 24] | 319 µM
COc1ccc(C(=O)/C=C/c2ccc(F)cc2)cc1 [Chalcone 25] | 264 µM
O=C(/C=C/c1ccccc1)c1ccc(Br)cc1 [Chalcone 8] | 66.1 µM
O=C(/C=C/c1ccc(Cl)cc1)c1ccccc1 [Chalcone 3] | 307 µM

---

- Test system: M. tuberculosis strain H37Rv in RAW 264.7 macrophages
- test-name: Intracellular growth of M. tuberculosis H37Rv in infected macrophages (CFU)
- Type: cell-based, Mycobacterium tuberculosis
- condition-set: Mycobacterium tuberculosis, H37RV, 96 h, infected RAW 264.7, MOI 1:1, 4 days, Figure 3C
MIC50 for assorted compounds

compound | MIC50
COc1ccc(C(=O)/C=C/c2ccccc2)cc1 [Chalcone 24] | 42.6 µM
O=C(/C=C/c1ccccc1)c1ccc(Br)cc1 [Chalcone 8] | 13.5 µM
O=C(/C=C/c1ccc(Cl)cc1)c1ccccc1Cl [Chalcone 33] | 248 µM
O=C(/C=C/c1ccc(F)cc1)c1ccc(Br)cc1 [Chalcone 9] | 12 µM

---

- test-name: Macrophage cytotoxicity, LDH release assay
- Type: cell-based, murine
- condition-set: mouse, RAW 264.7 macrophages stimulated with LPS; LPS-stimulated RAW 264.7, LDH release; mean ± SD, n = 3
pIC50: −log10 of the molar value.

smiles-record | readout-relation | pIC50
COc1ccc(/C=C/C(=O)c2ccc(OC)cc2)cc1 | = | 4.03
COc1ccc(/C=C/C(=O)c2ccc(Br)cc2)cc1OC | < | 3.54
COc1ccc(/C=C/C(=O)c2ccc(Br)cc2)cc1 | < | 3.50
Cc1ccc(C(=O)/C=C/c2ccc(N(C)C)cc2)cc1 | < | 3.42
Cc1ccc(C(=O)/C=C/c2ccc(F)cc2)cc1 | = | 3.54

---

- test-name: Macrophage cytotoxicity, LDH release assay
- Assay type: cell-based, murine
- condition-set: mouse, RAW 264.7 macrophages stimulated with LPS; LPS-stimulated RAW 264.7, LDH release; mean ± SD, n = 3
readout-type: IC50

compound | assay-result
Cc1ccc(C(=O)/C=C/c2ccc(Cl)cc2)cc1 [Chalcone 18] | 304 µM
COc1ccc(/C=C/C(=O)c2ccccc2Cl)cc1OC [Chalcone 36] | > 330 µM
COc1ccc(C(=O)/C=C/c2ccc([N+](=O)[O-])cc2)cc1 [Chalcone 40] | > 353 µM
O=C(/C=C/c1ccccc1)c1ccc(Br)cc1 [Chalcone 8] | 191 µM
Cc1ccc(C(=O)/C=C/c2ccccc2)cc1 [Chalcone 16] | > 450 µM
O=C(/C=C/c1ccc([N+](=O)[O-])cc1)c1ccccc1 [Chalcone 37] | > 395 µM
CN(C)c1ccc(/C=C/C(=O)c2ccccc2)cc1 [Chalcone 4] | 348 µM
O=C(/C=C/c1ccccc1Cl)c1ccc(Br)cc1 [Chalcone 15] | 256 µM
COc1ccc(C(=O)/C=C/c2ccc(N(C)C)cc2)cc1 [Chalcone 27] | 226 µM
COc1ccc(/C=C/C(=O)c2ccc(C)cc2)cc1 [Chalcone 21] | > 396 µM
O=C(/C=C/c1ccc2c(c1)OCO2)c1ccccc1 [Chalcone 5] | > 396 µM
O=C(/C=C/c1ccccn1)c1ccccc1 [Chalcone 7] | > 478 µM
O=C(/C=C/c1ccc(Cl)cc1)c1ccccc1 [Chalcone 3] | 400 µM
COc1ccc(C(=O)/C=C/c2ccc(Cl)cc2)cc1 [Chalcone 26] | > 367 µM
COc1ccc(/C=C/C(=O)c2ccc(C)cc2)cc1OC [Chalcone 22] | > 354 µM

---

pIC50 for assorted molecules
- Tested on: TNF-α production by LPS-stimulated RAW 264.7 macrophages
- test-name: Inhibition of TNF-α production by LPS-stimulated macrophages (ELISA)
- Type: cell-based, murine
- condition-set: Mus musculus, RAW264.7; LPS (1 µg/mL)-stimulated RAW 264.7, 24 h; mean ± SD, n = 3; read-out: IC50 TNF-α
pIC50: −log10 of the molar value.
readout-type: pIC50

molecule | assay-result
COc1ccc(C(=O)/C=C/c2ccc(F)cc2)cc1 | < 3.41
COc1ccc(/C=C/C(=O)c2ccccc2Cl)cc1OC | < 3.48
Cc1ccc(C(=O)/C=C/c2ccc3c(c2)OCO3)cc1 | < 3.43
O=C(/C=C/c1ccc(Cl)cc1)c1ccccc1 | 4.22
O=C(/C=C/c1ccc2c(c1)OCO2)c1ccccc1 | 4.32
CN(C)c1ccc(/C=C/C(=O)c2ccccc2)cc1 | 4.17
COc1ccc(C(=O)/C=C/c2ccc(N(C)C)cc2)cc1 | < 3.45
COc1ccc(C(=O)/C=C/c2ccc3c(c2)OCO3)cc1 | < 3.45
Cc1ccc(C(=O)/C=C/c2ccc(F)cc2)cc1 | < 3.38
COc1ccc(/C=C/C(=O)c2ccc(Br)cc2)cc1OC | < 3.54
Cc1ccc(C(=O)/C=C/c2ccc([N+](=O)[O-])cc2)cc1 | < 3.43
O=C(/C=C/c1ccc([N+](=O)[O-])cc1)c1ccccc1Cl | 4.16
COc1ccc(C(=O)/C=C/c2ccccc2)cc1 | 4.10
Cc1ccc(C(=O)/C=C/c2ccccc2Cl)cc1 | < 3.41
COc1ccc(/C=C/C(=O)c2ccc(C)cc2)cc1OC | < 3.45
O=C(/C=C/c1ccc2c(c1)OCO2)c1ccc(Br)cc1 | < 3.52
COc1ccc(/C=C/C(=O)c2ccccc2Cl)cc1 | < 3.44
Cc1ccc(C(=O)/C=C/c2ccc(N(C)C)cc2)cc1 | < 3.42
COc1ccc(C(=O)/C=C/c2ccc(Cl)cc2)cc1 | < 3.44
O=C(/C=C/c1ccccc1)c1ccccc1 [Chalcone 1, 1,3-diphenyl-2-propenone, reference compound] | < 3.32
